Listed here are compounds together with their documented IC50.
System: phospho-ERK in MKN1 (WTdep) cells
Assay: Inhibition of KRas-mediated phosphorylation of ERK (in-cell western)
Format: cell-based
Conditions: Homo sapiens, MKN-1, 3 hours compound, phospho-ERK normalized to GAPDH
Write the value in nM as a bare number.

Reference set, count: 2
*Q* Provide IC50 value for the following compound: CCc1c(F)ccc2cccc(-c3ncc4c(N5CCC[C@@](C)(O)C5)nc(OC[C@@]56CCCN5C[C@H](F)C6)nc4c3F)c12 [Example 16]
*A* 802

*Q* Provide IC50 value for the following compound: CCc1c(F)ccc2cccc(-c3ncc4c(N5CCCC6(CNC(=O)C6)C5)nc(OC[C@@]56CCCN5C[C@H](F)C6)nc4c3F)c12 (stereo partly shown) [Example 37]
*A* 1670

Next, consider the following compound.
*Q* Provide IC50 value for the following compound: CCc1c(F)ccc2cc(O)cc(-c3ncc4c(N5CCC6(CC5)CC(=O)N6)nc(OC[C@@]56CCCN5C[C@H](F)C6)nc4c3F)c12 [Example 73]
*A* 23

====

Target: KRas G12D (Homo sapiens, UniProt P01116, G12D);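 also: TR-FRET displacement binding assay on KRas, read after a one-hour incubation at room temperature, IC50 fitted from percent-of-control values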
Sequence (P01116 1-169 isoform P01116-2 G12D): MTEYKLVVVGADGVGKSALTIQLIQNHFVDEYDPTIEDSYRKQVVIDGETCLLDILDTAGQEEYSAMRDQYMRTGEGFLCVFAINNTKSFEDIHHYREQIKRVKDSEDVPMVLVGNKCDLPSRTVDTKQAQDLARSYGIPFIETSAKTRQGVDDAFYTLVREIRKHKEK
Assay: biochemical
Listed here are compounds together with their documented pIC50.
A value of pIC50 is the negative decimal logarithm of a concentration given in moles per litre.

Reference set, count: 3
*Q* Provide pIC50 value for the following compound: NS(=O)(=O)CC1CCCN(c2nc(OCC34CCCN3CCC4)nc3c(F)c(-c4cccc5cccc(CF)c45)ncc23)C1 (stereo not shown)
*A* 5.63

*Q* Provide pIC50 value for the following compound: OC1CC2CC(C1)N(c1nc(OCC34CCCN3CCC4)nc3c(F)c(-c4cccc5cccc(Cl)c45)ncc13)C2 (stereo not shown)
*A* 5.44

*Q* Provide pIC50 value for the following compound: `Fc1c(-c2cccc3cccc(F)c23)ncc2c(NCCCn3cnnn3)nc(OCC34CCCN3CCC4)nc12`
*A* 4.50

Next, consider the following compound.
*Q* Provide pIC50 value for the following compound: CC1(O)CCCN(c2nc(OCC34CCCN3CCC4)nc3c(F)c(-c4cc(O)cc5ccccc45)ncc23)C1 (stereo not shown)
*A* 7.92

====

Listed here are compounds together with their documented IC50.
Target: KRas Q61H (Homo sapiens, UniProt P01116, Q61H)
Construct: Biotinylated KRas (corresponding to amino acids 1-169, produced at Accelegan Inc.); biotin (biotinylated); purchased Accelegan Inc
Sequence (P01116 1-169 isoform P01116-2 Q61H): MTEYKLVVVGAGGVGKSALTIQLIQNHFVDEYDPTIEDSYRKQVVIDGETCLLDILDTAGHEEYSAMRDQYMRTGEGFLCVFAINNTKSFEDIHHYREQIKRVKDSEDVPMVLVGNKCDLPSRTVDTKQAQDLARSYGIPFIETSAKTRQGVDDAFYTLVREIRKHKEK
Test: KRas binding assay (TR-FRET displacement);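 also: TR-FRET signal read after one hour at room temperature, IC50 derived by four-parameter fitting of percent-of-control values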
Answer shape: numeric part, then the unit.

*Q* Provide IC50 value for the following compound: OC1CC2CC1CN(c1nc(OCC34CCCN3CCC4)nc3c(F)c(-c4cccc5cccc(F)c45)ncc13)C2 (centres unmarked) [Example 81]
*A* 1170 nM

*Q* Provide IC50 value for the following compound: Fc1c(-c2cccc3cccc(F)c23)ncc2c(Nc3ccc4cn[nH]c4c3)nc(OCC34CCCN3CCC4)nc12 [Example 218]
*A* 84800 nM

*Q* Provide IC50 value for the following compound: Fc1c(-c2cccc3cccc(F)c23)ncc2c(N3CC(n4cncn4)C3)nc(OCC34CCCN3CCC4)nc12 [Example 253]
*A* 7720 nM

*Q* Provide IC50 value for the following compound: O=c1ccc(CNc2nc(OCC34CCCN3CCC4)nc3c(F)c(-c4cccc5cccc(F)c45)ncc23)c[nH]1 [Example 96]
*A* 22100 nM

*Q* Provide IC50 value for the following compound: Fc1c(-c2cccc3cccc(F)c23)ncc2c(NCc3ncc4cc[nH]c4n3)nc(OCC34CCCN3CCC4)nc12 [Example 92]
*A* 17300 nM

*Q* Provide IC50 value for the following compound: Fc1c(-c2cccc3cccc(F)c23)ncc2c(NCCc3ccn[nH]3)nc(OCC34CCCN3CCC4)nc12 [Example 215]
*A* 57500 nM

*Q* Provide IC50 value for the following compound: NS(=O)(=O)NC1CCCN(c2nc(OCC34CCCN3CCC4)nc3c(F)c(-c4cccc5cccc(F)c45)ncc23)C1 (centres unmarked) [Example 240]
*A* 498 nM

*Q* Provide IC50 value for the following compound: Fc1c(-c2cccc3cccc(F)c23)ncc2c(N3CCCC4(CC4)C3)nc(OCC34CCCN3CCC4)nc12 [Example 114]
*A* 43300 nM

*Q* Provide IC50 value for the following compound: OCc1n[nH]c(CNc2nc(OCC34CCCN3CCC4)nc3c(F)c(-c4cccc5cccc(Cl)c45)ncc23)n1 [Example 105]
*A* 13800 nM

*Q* Provide IC50 value for the following compound: CC1(CNc2nc(OCC34CCCN3CCC4)nc3c(F)c(-c4cccc5cccc(F)c45)ncc23)CNC(=O)C1 (centres unmarked) [Example 35]
*A* 4010 nM

*Q* Provide IC50 value for the following compound: Fc1c(-c2cccc3cccc(F)c23)ncc2c(NCc3nnc4cccnn34)nc(OCC34CCCN3CCC4)nc12 [Example 122]
*A* 88200 nM

*Q* Provide IC50 value for the following compound: NC(=O)CCNc1nc(OCC23CCCN2CCC3)nc2c(F)c(-c3cccc4cccc(F)c34)ncc12 [Example 225]
*A* 26100 nM

*Q* Provide IC50 value for the following compound: C[C@@]1(O)CCCN(c2nc(OC[C@@]34CCCN3C[C@H](F)C4)nc3c(F)c(-c4c5ccccc5cc5[nH]ncc45)ncc23)C1 [Example 154]
*A* 53 nM

*Q* Provide IC50 value for the following compound: Fc1c(-c2cccc3cccc(F)c23)ncc2c(NCc3ccc4nccn4c3)nc(OCC34CCCN3CCC4)nc12 [Example 208]
*A* 7150 nM

Data provenance: patent US12398154B2
